Measured Kd, listed per entry for reference.
- measurementTarget: T1, FX zymogen (UniProt P00742 41-179; P00742 183-488)
- T1 chain 1: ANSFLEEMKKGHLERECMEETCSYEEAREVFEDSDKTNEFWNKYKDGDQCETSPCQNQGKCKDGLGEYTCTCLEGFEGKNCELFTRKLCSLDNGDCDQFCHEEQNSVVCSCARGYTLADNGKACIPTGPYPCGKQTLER
- T1 chain 2: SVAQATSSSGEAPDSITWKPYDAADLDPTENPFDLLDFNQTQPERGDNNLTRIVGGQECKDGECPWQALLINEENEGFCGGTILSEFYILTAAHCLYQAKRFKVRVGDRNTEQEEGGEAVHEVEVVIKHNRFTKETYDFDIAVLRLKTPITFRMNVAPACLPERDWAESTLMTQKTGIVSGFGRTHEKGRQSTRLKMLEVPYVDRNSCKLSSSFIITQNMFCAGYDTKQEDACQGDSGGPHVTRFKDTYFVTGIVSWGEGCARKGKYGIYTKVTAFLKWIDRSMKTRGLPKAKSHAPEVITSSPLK
- assayName: BLI
Provide only the numeric value, understood in nM.

BIIB-12-908 (antibody, V domains shown) VH: QVQLVESGGGVVQPGRSLRLSCAASGFTFSSYGMHWVRQAPGKGLEWVAVISYDGSNKYYADSVKGRFTISRDNSKNTLYLQMNSLRAEDTAVYYCAKGPRGMDVWGQGTTVTVSS VL: DIQLTQSPSSVSASVGDRVTITCRASQGISSWLAWYQQKPGKAPKLLIYGASSLQSGVPSRFSGSGSGTDFTLTISSLQPEDFATYYCQQGSSLPITFGGGTKVEIK : 34
BIIB-12-924 (antibody, V domains shown) VH: QVQLVESGGGVVQPGRSLRLSCAASGFTFSSYGMHWVRQAPGKGLEWVAVISYDGSNKYYADSVKGRFTISRDNSKNTLYLQMNSLRAEDTAVYYCAKGKSSERGLNPWGQGTLVTVSS VL: DIQMTQSPSSVSASVGDRVTITCRASQGISSWLAWYQQKPGKAPKLLIYAASSLQSGVPSRFSGSGSGTDFTLTISSLQPEDFATYYCQQGNSFPLTFGGGTKVEIK : 22.3
BIIB-12-919 (antibody, V domains shown) VH: QVQLVQSGAEVKKPGASVKVSCKASGYTFTSYYMHWVRQAPGQGLEWMGVINPSGGSTSYAQKFQGRVTMTRDTSTSTVYMELSSLRSEDTAVYYCARGANIAVGRRYADYWGQGTLVTVSS VL: DIQMTQSPSTLSASVGDRVTITCRASQSISSWLAWYQQKPGKAPKLLIYKASSLESGVPSRFSGSGSGTEFTLTISSLQPDDFATYYCQQVSSYPTFGGGTKVEIK : 23.1
BIIB-12-923 (antibody, V domains shown) VH: QVQLVQSGAEVKKPGASVKVSCKASGYTFTSYYMHWVRQAPGQGLEWMGIINPSGGSTSYAQKFQGRVTMTRDTSTSTVYMELSSLRSEDTAVYYCARGAGYLQRAFDIWGQGTMVTVSS VL: DIQMTQSPSTLSASVGDRVTITCRASQSISSWLAWYQQKPGKAPKLLIYKASSLESGVPSRFSGSGSGTEFTLTISSLQPDDFATYYCQQFKSLSFTFGGGTKVEIK : 33.8
BIIB-12-1304 (antibody, V domains shown) VH: QVQLVESGGGVVQPGRSLRLSCAASGFTFSSYGMHWVRQAPGKGLEWVAVISYDGSNKYYADSVKGRFTISRDNSKNTLYLQMNSLRAEDTAVYYCAKGPGSRRFDIWGQGTMVTVSS VL: EIVMTQSPATLSVSPGERATLSCRASQSVSSNLAWYQQKPGQAPRLLIYGASTRATGIPARFSGSGSGTEFTLTISSLQSEDFAVYYCQQANVLPLTFGGGTKVEIK : 50.5

Query: Endpoint output: Kd of BIIB-12-1325 (antibody, V domains shown) VH: QVQLVQSGAEVKKPGASVKVSCKASGYTFTSYYMVWVRQAPGQGLEWMGIINPSGGSTSYAQKFQGRVTMTRDTSTSTVYMELSSLRSEDTAVYYCARGGRYMLDPWGQGTLVTVSS VL: DIQMTQSPSTLSASVGDRVTITCRASQSISSWLAWYQQKPGKAPKLLIYKASSLESGVPSRFSGSGSGTEFTLTISSLQPDDFATYYCQQSNRYPRTFGGGTKVEIK . Value?
Reply: 17.8

Query: If you can, please state the reported Kd value of BIIB-12-1332 (antibody, V domains shown) VH: QVQLVQSGAEVKKPGASVKVSCKASGYTFTSYYMSWVRQAPGQGLEWMGIINPSGGSTSYAQKFQGRVTMTRDTSTSTVYMELSSLRSEDTAVYYCARLGRKSRVFDIWGQGTMVTVSS VL: DIQMTQSPSSVSASVGDRVTITCRASQGISSWLAWYQQKPGKAPKLLIYAASSLQSGVPSRFSGSGSGTDFTLTISSLQPEDFATYYCQQVNSFPLTFGGGTKVEFK .
Reply: 53.5

Query: # lookup: Kd of BIIB-12-1301 (antibody, V domains shown) VH: QVQLVESGGGVVQPGRSLRLSCAASGFTFSSYGMHWVRQAPGKGLEWVAVISYDGSNKYYADSVKGRFTISRDNSKNTLYLQMNSLRAEDTAVYYCARTGNYGRGMPYWGQGTLVTVSS VL: EIVLTQSPATLSLSPGERATLSCRASQSVSSYLAWYQQKPGQAPRLLIYDASKRATGIPARFSGSGSGTDFTLTISSLEPEDFAVYYCQQSSSWPPTFGGGTKVEIK
Reply: 65

Query: Dear colleague, I am looking for the recorded Kd of the following binder: BIIB-12-931 (antibody, V domains shown) VH: QVQLVQSGAEVKKPGASVKVSCKASGYTFTSYYMSWVRQAPGQGLEWMGIINPSGGSTSYAQKFQGRVTMTRDTSTSTVYMELSSLRSEDTAVYYCARDPVQEYGPYYYYMDVWGKGTTVTVSS VL: EIVMTQSPATLSVSPGERATLSCRASQSVSSNLAWYQQKPGQAPRLLIYGASTRATGIPARFSGSGSGTEFTLTISSLQSEDFAVYYCQQAAYWPWTFGGGTKVEIK
Reply: 13.5

Query: Sample BIIB-12-917 (antibody, V domains shown) VH: EVQLVQSGAEVKKPGESLKISCKGSGYSFTTYWIGWVRQMPGKGLEWMGIIYPGDSDTRYSPSFQGQVTISADKSISTAYLQWSSLKASDTAMYYCARGRFRPRGRFDYWGQGTLVTVSS VL: EIVMTQSPATLSVSPGERATLSCRASQSVSSNLAWYQQKPGQAPRLLIYGASTRATGIPARFSGSGSGTEFTLTISSLQSEDFAVYYCQQLFNHPPTFGGGTKVEIK — what was its Kd?
Reply: 31.5
